Biological target: Retinoic acid receptor RXR-beta (Homo sapiens, UniProt P28702)
Sequence (P28702 whole entry): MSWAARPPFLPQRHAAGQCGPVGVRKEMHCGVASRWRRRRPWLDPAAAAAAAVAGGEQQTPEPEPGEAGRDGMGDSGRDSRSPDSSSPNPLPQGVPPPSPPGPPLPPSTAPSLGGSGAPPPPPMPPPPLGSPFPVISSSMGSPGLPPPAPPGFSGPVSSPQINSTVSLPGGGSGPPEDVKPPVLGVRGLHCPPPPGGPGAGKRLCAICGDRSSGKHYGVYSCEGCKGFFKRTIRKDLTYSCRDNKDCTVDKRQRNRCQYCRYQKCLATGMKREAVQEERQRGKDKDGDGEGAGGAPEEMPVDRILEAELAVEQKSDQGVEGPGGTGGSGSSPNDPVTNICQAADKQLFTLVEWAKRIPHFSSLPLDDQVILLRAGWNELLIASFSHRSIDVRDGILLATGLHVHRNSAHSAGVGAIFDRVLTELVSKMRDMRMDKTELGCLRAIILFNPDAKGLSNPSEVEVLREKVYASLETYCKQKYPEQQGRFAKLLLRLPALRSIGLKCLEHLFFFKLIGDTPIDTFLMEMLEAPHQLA
Assay: Transcriptional activation of Retinoid X receptor RXR beta
readout type: pEC50
Lab note — pEC50 values are minus log10 of concentrations in M.

Query block: Query (compound): CCOc1cc2c(cc1\C(C)=C/C=C/C(C)=C/C(=O)O)C(C)(C)CCC2(C)C ; field requested: pEC50
Result block: 8.05

Query block: Field entry: COc1cc2c(cc1\C(C)=C/C=C/C(C)=C/C(=O)O)C(C)(C)CCC2(C)C
Result block: 8.10

* * *

Would you kindly list pEC50 for each of these compounds?
Molecular target: Retinoic acid receptor beta (Homo sapiens)
Sequence (P10826 whole entry): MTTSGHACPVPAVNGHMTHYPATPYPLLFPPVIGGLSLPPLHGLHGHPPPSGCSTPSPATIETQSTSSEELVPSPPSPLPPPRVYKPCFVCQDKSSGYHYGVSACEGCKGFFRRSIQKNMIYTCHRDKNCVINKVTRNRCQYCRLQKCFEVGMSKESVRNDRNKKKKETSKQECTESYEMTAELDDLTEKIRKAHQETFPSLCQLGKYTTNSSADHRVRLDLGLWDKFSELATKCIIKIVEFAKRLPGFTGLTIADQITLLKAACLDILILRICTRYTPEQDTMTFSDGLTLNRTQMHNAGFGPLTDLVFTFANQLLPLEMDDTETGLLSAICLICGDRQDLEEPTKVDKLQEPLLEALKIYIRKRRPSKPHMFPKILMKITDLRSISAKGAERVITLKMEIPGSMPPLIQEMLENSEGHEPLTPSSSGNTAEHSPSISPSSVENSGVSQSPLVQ
Assay: Transcriptional activation of Retinoic acid receptor RAR beta
// returns pEC50 (minus log10 of molar concentration), number only

Query block: Looking for the measured pEC50 of COc1cc2c(cc1\C(C)=C/C=C/C(C)=C/C(=O)O)C(C)(C)CCC2(C)C , can you help?
Result block: 8.10

Query block: Entry CCOc1cc2c(cc1\C(C)=C/C=C/C(C)=C/C(=O)O)C(C)(C)CCC2(C)C please
Result block: 7.51
